Values compiled from patent US20250002463A1.

Experiment: Physical stability under Accelerated Aging Conditions (AAC, 40° C./75% RH, 2 days), HT-XRPD
Conditions: Example 1; 40° C./75% RH for 2 days
recorded metric: Physically stable after AAC

                                   compound         result_value
0  N=C(NCc1ccccc1)NC(=O)c1nc(Cl)c(N)nc1N.O=P(O)(O)O [PHO1]  physically unstable
1  Cl.N/C(=N\C(=O)c1nc(Cl)c(N)nc1N)NCc1ccccc1 [Benzamil HCl SM1, reference compound]                   No
2  NC(=NC(=O)c1nc(Cl)c(N)nc1N)NCc1ccccc1.O=S(=O)(O)O [SUL2]  physically unstable
3  Cl.Cl.N=C(NCc1ccccc1)NC(=O)c1nc(Cl)c(N)nc1N [Di-HCl1]  physically unstable
4  NC(=NCc1ccccc1)NC(=O)c1nc(Cl)c(N)nc1N.O=[N+]([O-])O [NIT2]  physically unstable
5  N=C(NCc1ccccc1)NC(=O)c1nc(Cl)c(N)nc1N.O=C(O)C(O)C(O)C(=O)O [TAR1]    physically stable

// for each compound in input: emit Physically stable after AAC
1. N=C(NCc1ccccc1)NC(=O)c1nc(Cl)c(N)nc1N.O=[N+]([O-])O [NIT1]
2. NC(=NC(=O)c1nc(Cl)c(N)nc1N)NCc1ccccc1.O=[N+]([O-])O [NIT4]
3. Cc1ccc(S(=O)(=O)O)cc1.N=C(NCc1ccccc1)NC(=O)c1nc(Cl)c(N)nc1N [TOS3]
4. Cc1ccc(S(=O)(=O)O)cc1.N=C(NCc1ccccc1)NC(=O)c1nc(Cl)c(N)nc1N [TOS2a]

Result:
physically unstable
physically unstable
physically stable
physically unstable
